molecular target: TNF-α (Homo sapiens, UniProt P01375); construct: purchased R&D 210-TA-020/CF; test: TNF-α Induced HEK Blue Cellular Assay (secreted alkaline phosphatase expression, QUANTI-Blue); assay type: cell-based; details: HEK Blue TNFα reporter cells; TNF-α 100 μg/ml; 24 hrs at 37° C.; inhibition of secreted alkaline phosphatase; read-out: IC50 value
Sequence (P01375 77-233 limits assumed): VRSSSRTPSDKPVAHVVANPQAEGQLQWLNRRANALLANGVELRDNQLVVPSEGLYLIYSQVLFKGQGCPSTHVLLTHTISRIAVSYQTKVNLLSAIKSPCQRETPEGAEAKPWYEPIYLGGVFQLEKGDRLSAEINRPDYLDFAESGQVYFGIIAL
The following compounds are listed with their measured IC50 values.
assay metric: IC50

| compound | assay metric | readout value |
| --- | --- | --- |
| [2H]C([2H])([2H])N1C(=O)c2cccc(OC(F)F)c2[C@H]2C[C@@H]1c1nc3ccc(C#CC4CCN(C(=O)C(C)(C)C)C4)cc3n12 (stereo partly drawn) | IC50 | < 100 nM |
| [2H]C([2H])([2H])N1C(=O)c2cccc(OC(F)F)c2[C@H]2C[C@@H]1c1nc3ccc(C#CC4CN(CC(C)(C)O)C4)cc3n12 | IC50 | 10000 to 30000 nM |
| [2H]C([2H])([2H])N1C(=O)c2cccc(OC(F)F)c2[C@H]2C[C@@H]1c1nc3ccc(C#CC(C)OCC)cc3n12 (stereo partly drawn) | IC50 | 100 to 1000 nM |
